Assay: physchem
Details: phosphate buffer, pH 7.4
QUANTITY: solubility thermodynamic at 18 h (µM)

- MOLECULE: "CNCc1cc(Cl)ccc1Cn1c(=S)[nH]c(=O)c2[nH]ccc21"
  ENDPOINT VALUE: 160
- MOLECULE: "NC(c1ccccc1)c1ccccc1Cn1c(=S)[nH]c(=O)c2[nH]ccc21 (configuration not stated)"
  ENDPOINT VALUE: 8.3
- MOLECULE: "C[C@H](N)c1cc(Cl)ccc1Cn1c(=S)[nH]c(=O)c2[nH]ccc21"
  ENDPOINT VALUE: 850
- MOLECULE: "C[C@@H](N)c1cc(Cl)ccc1Cn1c(=S)[nH]c(=O)c2[nH]ccc21"
  ENDPOINT VALUE: 270
- MOLECULE: "CC(=O)NCc1cc(Cl)ccc1Cn1c(=S)[nH]c(=O)c2[nH]ccc21"
  ENDPOINT VALUE: 3.3
- MOLECULE: "O=c1[nH]c(=S)n(Cc2ccccc2CN2CCC2)c2cc[nH]c12"
  ENDPOINT VALUE: 930
- MOLECULE: "CC(C)NCc1ccccc1Cn1c(=S)[nH]c(=O)c2[nH]cnc21"
  ENDPOINT VALUE: 18
- MOLECULE: "CNCc1c(Cl)cccc1Cn1c(=S)[nH]c(=O)c2[nH]ccc21"
  ENDPOINT VALUE: 150
- MOLECULE: "CNCc1ccc(Cl)cc1Cn1c(=S)[nH]c(=O)c2[nH]ccc21"
  ENDPOINT VALUE: 210
- MOLECULE: "CN[C@H](C)c1cc(Cl)ccc1Cn1c(=S)[nH]c(=O)c2[nH]ccc21 (racemic)"
  ENDPOINT VALUE: 190
- MOLECULE: "CC(C)NCc1ccccc1Cn1c(=S)[nH]c(=O)c2[nH]ccc21"
  ENDPOINT VALUE: 140
- MOLECULE: "NCc1cc(Cl)ccc1Cn1c(=S)[nH]c(=O)c2[nH]ccc21"
  ENDPOINT VALUE: 42
